Collected literature values of pKi measured for Melatonin receptor type 1A (Homo sapiens, UniProt P48039).
Quick note: pKi values are minus log10 of concentrations in mol/L.

Some entries whose results are on file:
                                   compound  observable  value
0  C=CCC(=O)NCCc1cccc2ccc(OCCCCOc3ccc4cccc(CCNC(C)=O)c4c3)cc12         pKi   9.10
1                CC(=O)N[C@@H](C)COc1ccccc1         pKi   4.68
2       CCC(=O)NCc1cc2ccc(OC)cc2n1Cc1ccccc1         pKi   5.89
3      CC(=O)NCCc1c(Cc2ccccc2)oc2ccc(O)cc12         pKi   6.24
4     CC(C)=CCC/C(C)=C/COc1ccc2ccc(=O)oc2c1         pKi   5.72
5  CCCC(=O)N[C@H]1CCN(c2cccc3oc(CCCCc4ccccc4)cc23)C1         pKi   7.96
6             COc1cccc(OC[C@H](C)NC(C)=O)c1         pKi   6.46
7          CCCC(=O)Nc1ccc(Cc2cccc(OC)c2)cc1         pKi   7.96

Notebook: pull reported pKi for Melatonin receptor type 1A (Homo sapiens, UniProt P48039), entry "COc1ccc(OCCNC(C)=O)cc1"
4.21

Then this compound: CCNC(=O)NCC1CCc2c(cccc2OC)N1 (racemic)
6.32

Then this compound: "CCc1nc2cccc([C@@H]3C[C@H]3CNC(C)=O)c2o1"
9.46

====

Collected literature values of Ki measured for Melatonin receptor type 1A (Homo sapiens).
Provide only the numeric value, understood in µM.

Some entries whose results are on file:
>>> print(df.to_string())
                                   compound                                    target  unit_of_measurement   value
0  CCC(=O)NC1Cc2ccccc2N(c2ccccc2)C1 (racemic)  Melatonin receptor type 1A (Homo sapiens)                   µM   0.022
1  COc1cccc(/C(=C\CNC(=O)C2CCC2)c2ccccc2)c1  Melatonin receptor type 1A (Homo sapiens)                   µM   0.257
2  CC(=O)NCCC1=C(c2ccc(C(C)(C)C)cc2)Cc2ccc3c(c21)CCO3  Melatonin receptor type 1A (Homo sapiens)                   µM  0.0014
3          CCC(=O)NCCc1[nH]c2cccc(OC)c2c1Br  Melatonin receptor type 1A (Homo sapiens)                   µM  0.0501

Below: the item to evaluate.
Request the reported Ki associated with "CCCC(=O)Nc1ccc(Nc2cccc(OC)c2)cc1"
0.031

====

Collected literature values of pKi measured for Melatonin receptor type 1A (Homo sapiens, UniProt P48039).
Quick note: pKi values are minus log10 of concentrations in mol/L.

In [3]: df
Out[3]:
                                   compound  observable  value
0  COc1cccc(C(CCNC(C)=O)c2ccccc2)c1 (racemic)         pKi   5.66
1    CNC(=O)NCCc1c(Cc2ccccc2)oc2ccc(OC)cc12         pKi   8.27
2       CCC(=O)NCCCc1cccc2nc(-c3ccccc3)oc12         pKi   7.88
3         CNc1nnc(CCc2c[nH]c3ccc(OC)cc23)o1         pKi   6.26
4  COc1ccc2oc(-c3cc4ccccc4c4ccccc34)c(CCNC(C)=O)c2n1         pKi   7.17

Request the reported pKi associated with CCC(=O)NCC1Cc2cccc3ccc(OC)c1c23 (stereo not drawn)
10.00

Then this compound: "CCC(=O)NCCCc1cccc2nc(C(C)C)oc12"
6.85

Then this compound: "O=C(N[C@H]1CCN(c2cccc3c2CCO3)C1)C1CC1"
8.92

Then this compound: "O=C(CBr)NCCc1c(Sc2ccc(F)cc2)sc2ccc(F)cc12"
7.66

Then this compound: "CCCc1nc2cccc(CCCNC(C)=O)c2o1"
6.74
